Data credit: patent US20240287046A1

# Test system: ASPC-1 tumor-bearing mice
# measurement_protocol: Biodistribution of radionuclide labeled complexes in ASPC-1 tumor-bearing mice
# Type: in vivo, BALB/c nude mice
# condition_description: Femur, 1 h
quantity: % ID/g (1 h) Femur (% ID/g)
Return type: number; implicit unit % ID/g.

INSERT INTO assay_data (compound, tested_on, quantitative_readout) VALUES
  ('COc1cccc(OC)c1-c1cc(C(=O)NC2(C(=O)O)C3CC4CC(C3)CC2C4)nn1-c1ccc(OCCCN(C)CCCN(C)C(=O)CN2CCN(CC(=O)[O-])CCN(CC(=O)[O-])CCN(CC(=O)[O-])CC2)cc1C(C)C.[177Lu+3] (stereo not shown) [^177Lu-I-7]', 'ASPC-1 tumor-bearing mice', 1.65),
  ('COc1cccc(OC)c1-c1cc(C(=O)NC2(C(=O)O)C3CC4CC(C3)CC2C4)nn1-c1ccc(C(=O)N(CCCNC(=O)CN2CCN(CC(=O)[O-])CCN(CC(=O)[O-])CCN(CC(=O)[O-])CC2)CCCN(C)C)cc1C(C)C.[177Lu+3] (stereo not shown) [^177Lu-C-5, reference compound]', 'ASPC-1 tumor-bearing mice', 0.53),
  ('COc1cccc(OC)c1-c1cc(C(=O)NC2(C(=O)O)C3CC4CC(C3)CC2C4)nn1-c1ccc(C(=O)N(C)CCCN(C)CCCN(C)C(=O)CN2CCN(CC(=O)[O-])CCN(CC(=O)[O-])CCN(CC(=O)[O-])CC2)cc1C(C)C.[177Lu+3] (stereo not shown) [^177Lu-C-2, reference compound]', 'ASPC-1 tumor-bearing mice', 1.34);

# input for lookup
Exercise: Need % ID/g (1 h) Femur of COc1cccc(OC)c1-c1cc(C(=O)NC2(C(=O)O)C3CC4CC(C3)CC2C4)nn1-c1ccc(N(CCCN(C)C)C(=O)COCCOCCNC(=O)CN2CCN(CC(=O)[O-])CCN(CC(=O)[O-])CCN(CC(=O)[O-])CC2)cc1C(C)C.[177Lu+3] (stereo not shown) [^177Lu-I-6] , thanks.
Solution: 0.12

====

% ID/g (72 h) Tumor overview
# Tested on: ASPC-1 tumor-bearing mice
# measurement_protocol: Biodistribution of radionuclide labeled complexes in ASPC-1 tumor-bearing mice
# Type: in vivo, BALB/c nude mice
# condition_description: Tumor, 72 h

INSERT INTO results (compound, tested_on, quantity, result) VALUES
  ('COc1cccc(OC)c1-c1cc(C(=O)NC2(C(=O)O)C3CC4CC(C3)CC2C4)nn1-c1ccc(NCCCN(C)CCCNC(=O)CN2CCN(CC(=O)[O-])CCN(CC(=O)[O-])CCN(CC(=O)[O-])CC2)cc1C(C)C.[177Lu+3] (centres unmarked) [^177Lu-I-2]', 'ASPC-1 tumor-bearing mice', '% ID/g (72 h) Tumor', '15.44 ± 5.61 % ID/g');

# input for lookup
Exercise: GET /values?readout=% ID/g (72 h) Tumor&system=ASPC-1 tumor-bearing mice&item= COc1cccc(OC)c1-c1cc(C(=O)NC2(C(=O)O)C3CC4CC(C3)CC2C4)nn1-c1ccc(N(C)CCCN(C)CCCN(C)C(=O)CN2CCN(CC(=O)[O-])CCN(CC(=O)[O-])CCN(CC(=O)[O-])CC2)cc1C(C)C.[177Lu+3] (centres unmarked) [^177Lu-I-1]
Solution: 7.23 ± 4.46 % ID/g

====

# System: ASPC-1 tumor-bearing mice
# measurement_protocol: Biodistribution of radionuclide labeled complexes in ASPC-1 tumor-bearing mice
# Type: in vivo, BALB/c nude mice
# condition_description: Kidney, 24 h
quantity: % ID/g (24 h) Kidney (% ID/g)
Return type: number; implicit unit % ID/g.

Reference set (3 entries):
INSERT INTO measurements (compound, tested_on, quantitative_readout) VALUES
  ('COc1cccc(OC)c1-c1cc(C(=O)NC2(C(=O)O)C3CC4CC(C3)CC2C4)nn1-c1ccc(OCCCN(C)CCCN(C)C(=O)CN2CCN(CC(=O)[O-])CCN(CC(=O)[O-])CCN(CC(=O)[O-])CC2)cc1C(C)C.[177Lu+3] (stereo not shown) [^177Lu-I-7]', 'ASPC-1 tumor-bearing mice', 1.2),
  ('COc1cccc(OC)c1-c1cc(C(=O)NC2(C(=O)O)C3CC4CC(C3)CC2C4)nn1-c1ccc(NCCCN(C)CCCNC(=O)CN2CCN(CC(=O)[O-])CCN(CC(=O)[O-])CCN(CC(=O)[O-])CC2)cc1C(C)C.[177Lu+3] (stereo not shown) [^177Lu-I-2]', 'ASPC-1 tumor-bearing mice', 2.39),
  ('COc1cccc(OC)c1-c1cc(C(=O)NC2(C(=O)O)C3CC4CC(C3)CC2C4)nn1-c1ccc(SCCCN(C)CCCN(C)C(=O)CN2CCN(CC(=O)[O-])CCN(CC(=O)[O-])CCN(CC(=O)[O-])CC2)cc1C(C)C.[177Lu+3] (stereo not shown) [^177Lu-I-8]', 'ASPC-1 tumor-bearing mice', 1.47);

# input for lookup
Exercise: Need % ID/g (24 h) Kidney of COc1cccc(OC)c1-c1cc(C(=O)NC2(C(=O)O)C3CC4CC(C3)CC2C4)nn1-c1ccc(N(C)CCCN(C)CCCN(C)C(=O)CN2CCN(CC(=O)[O-])CCN(CC(=O)[O-])CCN(CC(=O)[O-])CC2)cc1C(C)C.[177Lu+3] (stereo not shown) [^177Lu-I-1] , thanks.
Solution: 3.16

====

# Tested on: ASPC-1 tumor-bearing mice
# measurement_protocol: Biodistribution of radionuclide labeled complexes in ASPC-1 tumor-bearing mice
# Format: in vivo, BALB/c nude mice
# condition_description: Lung, 1 h
quantity: % ID/g (1 h) Lung (% ID/g)
Return type: number; implicit unit % ID/g.

Reference set (3 entries):
INSERT INTO measurements (molecule, tested_on, quantitative_readout) VALUES
  ('COc1cccc(OC)c1-c1cc(C(=O)NC2(C(=O)O)C3CC4CC(C3)CC2C4)nn1-c1ccc(OCCCN(C)CCCN(C)C(=O)CN2CCN(CC(=O)[O-])CCN(CC(=O)[O-])CCN(CC(=O)[O-])CC2)cc1C(C)C.[177Lu+3] (stereo not shown) [^177Lu-I-7]', 'ASPC-1 tumor-bearing mice', 3.12),
  ('COc1cccc(OC)c1-c1cc(C(=O)NC2(C(=O)O)C3CC4CC(C3)CC2C4)nn1-c1ccc(C(=O)N(C)CCCN(C)CCCN(C)C(=O)CN2CCN(CC(=O)[O-])CCN(CC(=O)[O-])CCN(CC(=O)[O-])CC2)cc1C(C)C.[177Lu+3] (stereo not shown) [^177Lu-C-2, reference compound]', 'ASPC-1 tumor-bearing mice', 3.67),
  ('COc1cccc(OC)c1-c1cc(C(=O)NC2(C(=O)O)C3CC4CC(C3)CC2C4)nn1-c1ccc(C(=O)N(CCCNC(=O)CN2CCN(CC(=O)[O-])CCN(CC(=O)[O-])CCN(CC(=O)[O-])CC2)CCCN(C)C)cc1C(C)C.[177Lu+3] (stereo not shown) [^177Lu-C-5, reference compound]', 'ASPC-1 tumor-bearing mice', 1.66);

# input for lookup
Exercise: Need % ID/g (1 h) Lung of COc1cccc(OC)c1-c1cc(C(=O)NC2(C(=O)O)C3CC4CC(C3)CC2C4)nn1-c1ccc(N(CCCN(C)C)C(=O)COCCOCCNC(=O)CN2CCN(CC(=O)[O-])CCN(CC(=O)[O-])CCN(CC(=O)[O-])CC2)cc1C(C)C.[177Lu+3] (stereo not shown) [^177Lu-I-6] , thanks.
Solution: 0.54

====

% ID/g (24 h) Spleen overview
# Test system: ASPC-1 tumor-bearing mice
# measurement_protocol: Biodistribution of radionuclide labeled complexes in ASPC-1 tumor-bearing mice
# Format: in vivo, BALB/c nude mice
# condition_description: Spleen, 24 h
Return type: number; implicit unit % ID/g.

Reference set (4 entries):
INSERT INTO results (compound, quantity, quantitative_readout) VALUES
  ('COc1cccc(OC)c1-c1cc(C(=O)NC2(C(=O)O)C3CC4CC(C3)CC2C4)nn1-c1ccc(C(=O)N(C)CCCN(C)CCCN(C)C(=O)CN2CCN(CC(=O)[O-])CCN(CC(=O)[O-])CCN(CC(=O)[O-])CC2)cc1C(C)C.[177Lu+3] (stereo not shown) [^177Lu-C-2, reference compound]', '% ID/g (24 h) Spleen', 0.35),
  ('COc1cccc(OC)c1-c1cc(C(=O)NC2(C(=O)O)C3CC4CC(C3)CC2C4)nn1-c1ccc(NCCCN(C)CCCNC(=O)CN2CCN(CC(=O)[O-])CCN(CC(=O)[O-])CCN(CC(=O)[O-])CC2)cc1C(C)C.[177Lu+3] (stereo not shown) [^177Lu-I-2]', '% ID/g (24 h) Spleen', 1.07),
  ('COc1cccc(OC)c1-c1cc(C(=O)NC2(C(=O)O)C3CC4CC(C3)CC2C4)nn1-c1ccc(NC(=O)CCCN(C)CCCN(C)C(=O)CN2CCN(CC(=O)[O-])CCN(CC(=O)[O-])CCN(CC(=O)[O-])CC2)cc1C(C)C.[177Lu+3] (stereo not shown) [^177Lu-I-5]', '% ID/g (24 h) Spleen', 0.63),
  ('COc1cccc(OC)c1-c1cc(C(=O)NC2(C(=O)O)C3CC4CC(C3)CC2C4)nn1-c1ccc(SCCCN(C)CCCN(C)C(=O)CN2CCN(CC(=O)[O-])CCN(CC(=O)[O-])CCN(CC(=O)[O-])CC2)cc1C(C)C.[177Lu+3] (stereo not shown) [^177Lu-I-8]', '% ID/g (24 h) Spleen', 1.22);

Exercise: Need % ID/g (24 h) Spleen of COc1cccc(OC)c1-c1cc(C(=O)NC2(C(=O)O)C3CC4CC(C3)CC2C4)nn1-c1ccc(NCCOCCOCCNC(=O)CN2CCN(CC(=O)[O-])CCN(CC(=O)[O-])CCN(CC(=O)[O-])CC2)cc1C(C)C.[177Lu+3] (stereo not shown) [^177Lu-I-10] , thanks.
Solution: 0.12

Exercise: Need % ID/g (24 h) Spleen of COc1cccc(OC)c1-c1cc(C(=O)NC2(C(=O)O)C3CC4CC(C3)CC2C4)nn1-c1ccc(OCCCN(C)CCCN(C)C(=O)CN2CCN(CC(=O)[O-])CCN(CC(=O)[O-])CCN(CC(=O)[O-])CC2)cc1C(C)C.[177Lu+3] (stereo not shown) [^177Lu-I-7] , thanks.
Solution: 0.23

Exercise: Need % ID/g (24 h) Spleen of COc1cccc(OC)c1-c1cc(C(=O)NC2(C(=O)O)C3CC4CC(C3)CC2C4)nn1-c1ccc(N(C)CCCN(C)CCCN(C)C(=O)CN2CCN(CC(=O)[O-])CCN(CC(=O)[O-])CCN(CC(=O)[O-])CC2)cc1C(C)C.[177Lu+3] (stereo not shown) [^177Lu-I-1] , thanks.
Solution: 0.53
